assay-notes: protein stability index of a GFP-peptide fusion (GPS, HEK-293T) (PSI 1-6); higher = more stable;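 also: 24-mer peptide tiles fused after GFP, lentivirally expressed, FACS-sorted into six equal bins by GFP/DsRed ratio, decoded by Illumina sequencing, PSI is the read-weighted mean bin number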
cond: treatment: DMSO; c terminus: a fixed tail appended
Quick rule: protein stability index of at least 3 means Met, below that means Not met.

macromolecule_sequence="DPELKNLFDMCGISEAQLKDRETS [WASL]" cat=Met
macromolecule_sequence="REESQHEIKDVLVWTNDQVVHWVQ [PPFIA4]" cat=Met
macromolecule_sequence="SPKTNGHIENGPFSLEQQLDDEDD [SRPK2]" cat=Met
macromolecule_sequence="PTDYQVNIQIIEYEKKQTLGQNDT [BTBD1]" cat=Met

# input for lookup
**Query** Confirm if protein stability index reported for the sequence PADIQAQFAISRELIRNIYNSFHK [SNX8] is 3 or above.
**Result** Not met
